# procedure-text: NCI Yeast Anticancer Drug Screen. Data for the mec2-1 strain (AID 157)
# condition-info: S. cerevisiae mec2-1 strain, at 50.0 µM (retest, dose inferred, filed as 5.0), hits give high values
This is part of a sample that, as a whole, favours compounds with a hit. Of some 79,000 tested, about 15% had one in any assay.
experimental-endpoint: growth inhibition (%)
Please reply with the bare figure in % and do not write the unit itself.

In the examples that follow, each entry is paired with its recorded growth inhibition.
| molecule | reading-unit | growth inhibition |
| --- | --- | --- |
| CCOC(=O)CN1CCC(C(=O)CC2(O)C3(Cl)C4(Cl)C5(Cl)C(Cl)(Cl)C6(Cl)C4(Cl)C2(Cl)C6(Cl)C53Cl)CC1 (stereo unspecified) | % | 99 |
| [Cl][Pt+2][Cl].[NH-]c1cc2ccccc2cc1[NH-] | % | 16 |
| O=C(/C=C/c1cc(O)c(O)cc1O)OCCc1ccccc1 | % | 61 |

For reference, reported growth inhibition for Clc1cccc2c(-c3ccccc3)c3cccc(Cl)c3cc12 stands at 50

GET /value?item= O=[N+]([O-])c1cc(Cl)ccc1S(=O)(=O)c1ccccc1 &field=growth inhibition returns 30

Noted for CCOc1ccc2c(c1)CCC1C2CCC2(C)CC(O)CC12 (stereo unspecified) : its growth inhibition reads 67

response.value for CCCCCCCCCc1c(O)c(O)c(CCCCCCCCC)c(CCCCCCCCC)c1CCCCCCCCC (field: growth inhibition) = 30

Entry under test: CC1(C)NC(=O)C(C)(C)NC1=O . Its growth inhibition was 2

response.value for CC(CN(C)C)C(/C=C/c1ccc(Cl)cc1)=N\NC(=O)c1ccccc1 (stereo unspecified) (field: growth inhibition) = 12

In plain terms, O=C(Nn1c(=O)c(=O)oc2ccccc21)C(F)(F)F has a documented growth inhibition of 87

Reported growth inhibition of S=C(S)NCCN1CCNC1=S : 50
